- test system: ATP-binding cassette transporter A1 (ABCA1) (UniProt P41233 1-2261, limits assumed)
- Sequence (P41233 whole entry): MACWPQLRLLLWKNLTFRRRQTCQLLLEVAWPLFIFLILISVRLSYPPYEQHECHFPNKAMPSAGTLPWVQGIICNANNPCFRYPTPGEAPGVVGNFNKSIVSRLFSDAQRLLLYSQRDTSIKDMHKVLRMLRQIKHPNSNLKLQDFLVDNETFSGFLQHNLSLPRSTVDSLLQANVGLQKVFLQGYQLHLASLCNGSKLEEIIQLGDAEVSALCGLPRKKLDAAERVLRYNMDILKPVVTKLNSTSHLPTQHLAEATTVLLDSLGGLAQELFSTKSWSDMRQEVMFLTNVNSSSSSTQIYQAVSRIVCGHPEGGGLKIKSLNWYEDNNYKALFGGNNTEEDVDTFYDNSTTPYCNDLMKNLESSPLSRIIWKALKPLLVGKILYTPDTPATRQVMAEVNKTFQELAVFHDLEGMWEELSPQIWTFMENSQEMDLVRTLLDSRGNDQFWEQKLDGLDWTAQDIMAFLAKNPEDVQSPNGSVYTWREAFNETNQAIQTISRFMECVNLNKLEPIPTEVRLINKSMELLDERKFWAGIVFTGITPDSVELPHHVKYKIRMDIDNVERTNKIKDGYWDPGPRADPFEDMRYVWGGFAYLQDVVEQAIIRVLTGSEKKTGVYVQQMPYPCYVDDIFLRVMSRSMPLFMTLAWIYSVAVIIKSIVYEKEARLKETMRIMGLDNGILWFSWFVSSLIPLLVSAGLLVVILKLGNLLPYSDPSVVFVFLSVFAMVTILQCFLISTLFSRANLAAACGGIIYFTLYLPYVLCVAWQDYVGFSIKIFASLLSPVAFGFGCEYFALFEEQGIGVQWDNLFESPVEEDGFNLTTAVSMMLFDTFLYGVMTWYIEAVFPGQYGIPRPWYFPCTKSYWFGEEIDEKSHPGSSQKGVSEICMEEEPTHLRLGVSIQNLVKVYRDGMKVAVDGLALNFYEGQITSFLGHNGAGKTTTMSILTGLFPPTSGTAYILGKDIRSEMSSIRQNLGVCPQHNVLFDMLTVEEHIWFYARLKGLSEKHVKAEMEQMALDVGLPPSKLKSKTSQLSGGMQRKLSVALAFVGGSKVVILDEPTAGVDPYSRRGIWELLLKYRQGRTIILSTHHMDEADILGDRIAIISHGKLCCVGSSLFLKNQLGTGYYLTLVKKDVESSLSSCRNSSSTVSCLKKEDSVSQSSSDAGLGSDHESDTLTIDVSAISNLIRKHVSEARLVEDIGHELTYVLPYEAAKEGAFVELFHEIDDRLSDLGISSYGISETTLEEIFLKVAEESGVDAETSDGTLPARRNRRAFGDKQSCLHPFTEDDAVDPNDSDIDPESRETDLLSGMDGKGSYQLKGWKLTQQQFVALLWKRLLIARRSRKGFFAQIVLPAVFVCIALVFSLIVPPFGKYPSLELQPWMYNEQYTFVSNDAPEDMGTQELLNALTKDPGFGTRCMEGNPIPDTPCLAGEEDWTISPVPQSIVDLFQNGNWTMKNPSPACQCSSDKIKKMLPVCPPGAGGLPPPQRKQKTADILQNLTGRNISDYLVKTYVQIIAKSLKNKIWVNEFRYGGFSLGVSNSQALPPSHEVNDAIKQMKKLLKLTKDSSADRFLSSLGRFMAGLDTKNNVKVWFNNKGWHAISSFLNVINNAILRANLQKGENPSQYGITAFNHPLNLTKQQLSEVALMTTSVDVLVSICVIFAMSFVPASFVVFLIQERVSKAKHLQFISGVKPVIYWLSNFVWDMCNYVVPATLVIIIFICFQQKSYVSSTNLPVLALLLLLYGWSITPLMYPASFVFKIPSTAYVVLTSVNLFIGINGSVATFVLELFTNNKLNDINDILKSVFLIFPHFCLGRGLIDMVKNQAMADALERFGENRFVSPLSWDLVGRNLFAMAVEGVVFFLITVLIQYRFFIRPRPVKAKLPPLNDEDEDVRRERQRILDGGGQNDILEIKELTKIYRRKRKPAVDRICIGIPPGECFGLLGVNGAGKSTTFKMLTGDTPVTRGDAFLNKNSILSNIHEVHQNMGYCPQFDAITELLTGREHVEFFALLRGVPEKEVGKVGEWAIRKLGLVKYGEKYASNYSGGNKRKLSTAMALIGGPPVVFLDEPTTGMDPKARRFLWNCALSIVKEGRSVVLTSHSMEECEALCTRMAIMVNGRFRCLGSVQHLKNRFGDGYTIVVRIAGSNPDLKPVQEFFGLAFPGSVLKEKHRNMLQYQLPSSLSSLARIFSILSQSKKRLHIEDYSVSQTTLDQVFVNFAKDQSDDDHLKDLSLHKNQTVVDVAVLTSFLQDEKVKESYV
- assay remarks: cell-based or functional assay
reported property: % cholesterol efflux/4 hours at 0.1 µg/ml (%)

These recorded examples may help you get a feel for the data.
INSERT INTO results (binder, quantity_unit, assay_result) VALUES
  ('EVREKLEAWFELFREFLERFLS [N965-5]', '%', 0.12),
  ('EVREKLEAWFELFREFLERFKS [N965-4]', '%', 0.29),
  ('EVREKLEAWFELFREFLERF [N965-7]', '%', 0.03),
  ('EVREKLEAWFEAFREFAERFKS [N965-1]', '%', 0),
  ('ELREKLEAWRELFEEFFARFLS [N965-9]', '%', 0.03);

P. ELREKLEAWFELFREFLERF [SEQ ID NO:2 peptide]
Q. EVREKLEAWFELFREFAERFKS [N965-2]
### Prompt Of P and Q , which carries the smaller reported % cholesterol efflux/4 hours at 0.1 µg/ml figure? Answer by quoting the chosen item's label.
### Response Q

1. EVREKLEAWFELFREFAERFLS [N965-3]
2. EVREKLEAWFELFREFLERFL [N965-6]
### Prompt Of 1 and 2 , which carries the smaller reported % cholesterol efflux/4 hours at 0.1 µg/ml figure? Answer by quoting the chosen item's label.
### Response 2
